- Experiment notes: NCI Yeast Anticancer Drug Screen. Data for the bub3 strain (AID 167)
- Conditions used: S. cerevisiae bub3 mutant strain, at 5.0 µM (retest, dose inferred, filed as 0.5), active compounds read high
This is part of a sample that, as a whole, favours compounds with a hit. Of some 79,000 tested, about 15% had one in any assay.
Attribute measured: growth inhibition (%)
State just the number; it will be interpreted in %.

Answer with the recorded growth inhibition for the molecule listed here: COc1cc(C2CC(C)(OC)Oc3cc4c(cc32)OCO4)cc(OC)c1O (stereo not given)
10

* * *

- Experiment notes: NCI Yeast Anticancer Drug Screen. Data for the rad50 strain (AID 155);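 also: 0% = growth of vehicle-only cultures of the same strain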
- Conditions used: S. cerevisiae rad50 strain growth inhibition; at 50.0 µM (retest, dose inferred, filed as 5.0); active compounds read high
About 79,000 compounds went through this panel and 15% of them were active in at least one assay; those are over-represented in the sample as a whole.
Would you please tag the item 1.0 when its growth inhibition is 40% or above, and 0.0 when it is below?

Some solved cases for reference:
1) c1ccc(COc2cccc3[nH]ccc23)cc1 : 0.0
2) Cc1scnc1C(C#N)(c1ccccc1)c1ccccc1 : 1.0
3) CCN1CCC(O)(/C=C/c2ccc(Cl)c(Cl)c2)C(C(=O)/C=C/c2ccc(Cl)c(Cl)c2)C1 (stereo unspecified) : 1.0

Say whether Cc1nc(Cl)nc(N)c1[N+](=O)[O-] shows growth inhibition of 40% or more.
1.0

Say whether COc1ccc(C(=O)O)c(-c2c(C(=O)O)ccc(OC)c2OC(C)=O)c1 shows growth inhibition of 40% or more.
0.0

Say whether O=C([O-])c1ccccc1[I+]c1ccc(C2CCCCC2)cc1 shows growth inhibition of 40% or more.
1.0

* * *

- Experiment notes: NCI Yeast Anticancer Drug Screen. Data for the sgs1 mgt1 strain (AID 161);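 also: 0% = growth of cultures given vehicle only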
- Conditions used: S. cerevisiae sgs1 mgt1 strain, at 50.0 µM (retest, dose inferred, filed as 5.0)
The panel holds about 79,000 compounds, 15% with a hit somewhere; the sample as a whole holds those more often. Activity calls are given as the source filed them. Cut-off read from the data, not from the text of the source: active = growth inhibition above about 70%; inactive = the rest.
Pick one and only one: active, inactive

Some solved cases for reference:
1) O=C1C(=O)c2ccccc2C(O)=C1Sc1ccccc1 : active
2) CCCCCCc1cc(C(=O)N/N=C\c2cccc([N+](=O)[O-])c2)c2ccccc2n1 : inactive
3) Cc1cc(/C=N/Nc2ccc3cccc(O)c3n2)c(O)c2ncccc12 : active
4) Cc1cn(C(C#N)=C(C#N)C#N)c2ccccc12 : inactive
5) Cc1ccc(C2COc3cc(O)c(O)cc3C2)cc1 (configuration not stated) : active
6) Oc1cccc2cc(Br)cnc12 : active
7) O=C(c1ccccc1)C1N=NCC1c1ccc([N+](=O)[O-])cc1 (configuration not stated) : inactive
8) O=S(=O)(CCCl)Cc1ccccc1 : inactive

Record request — test call for O=C(OCc1ccccc1)C(O)c1ccccc1 (configuration not stated)
inactive

Record request — test call for CSc1cc(-c2cc3ccccc3o2)oc(=O)c1C#N
inactive

Record request — test call for ClC1(Cl)c2ccccc2-c2ccccc21
inactive

Record request — test call for O=S(=O)(Nc1ccccc1)c1ccccc1C=C(c1ccccc1)c1ccccc1
active

Record request — test call for O=[N+]([O-])c1cc(I)cc(/C=N/NS(=O)(=O)c2ccc(F)cc2)c1O
inactive

Record request — test call for COc1ccc(C(=O)CCc2c[nH]c3ccccc23)c(O)c1
inactive

Record request — test call for CC/C(=C(/CC)c1ccc(O)cc1)c1ccc([O-])cc1.CC/C(=C(/CC)c1ccc(O)cc1)c1ccc([O-])cc1.O=C([CH-]C(=O)c1ccccc1)c1ccccc1.O=C([CH-]C(=O)c1ccccc1)c1ccccc1.[Ti+4]
active

Record request — test call for O=[N+]([O-])C1CCC(C2=CSC3CCCCC3N2)CC1 (configuration not stated)
inactive

Record request — test call for CN(C(=O)c1cccs1)C(=S)N1CCN(c2ccccc2)CC1
active

Record request — test call for CCN(CC)Cc1cc(Nc2c3ccccc3nc3c4ccccc4n(C)c23)ccc1O
inactive
